Source of measurements: patent US6649647B1

Test system: Rat 6 (R6T24) cells transfected and transformed by a c-H-ras oncogene
Test: Screening for cytotoxicity, cell count by Coulter Counter, R6T24 cells
Format: cell-based
Conditions: Table V; R6T24 cell line; day 6 after addition
metric: LD50 (Day 6) R6T24 (µM)
I only need the number, in µM, no unit after it.

Below are worked cases with known answers.
| compound | value |
| --- | --- |
| CC1CCC2C(C)C(OCC(F)(F)F)OC3OC4(C)CCC1C32OO4 (stereo not shown) | 0.39 |
| CC1CCC2C(C)C(F)OC3OC4(C)CCC1C32OO4 (stereo not drawn) [Example 1, 10β-fluoro-10-deoxodihydroartemisinin] | 0.61 |

Provide the documented LD50 (Day 6) R6T24 with Rat 6 (R6T24) cells transfected and transformed by a c-H-ras oncogene as the system for `C[C@@H]1CC[C@H]2[C@@H](C)C(=O)N(Cc3cccc(F)c3)[C@@H]3O[C@@]4(C)CC[C@@H]1[C@@]23OO4`
1.07

Provide the documented LD50 (Day 6) R6T24 with Rat 6 (R6T24) cells transfected and transformed by a c-H-ras oncogene as the system for C[C@@H]1CC[C@H]2[C@@H](C)C(Nc3ccccc3)O[C@@H]3O[C@@]4(C)CC[C@@H]1[C@]32OO4 (stereo partly shown)
0.26

###

Listing of recorded LD50 (Day 6) R6 by entry.
Tested on: Rat 6 subclone of the immortalized F2408 embryo cell line (R6)
Test: Screening for cytotoxicity, cell count by Coulter Counter, R6 cells
Type: cell-based
Conditions: Table VA, day 6 after addition
I only need the number, in µM, no unit after it.

Below are worked cases with known answers.
| compound | measurement.target | unit.tag | LD50 (Day 6) R6 |
| --- | --- | --- | --- |
| C[C@@H]1CC[C@H]2[C@@H](C)C(c3cc4ccccc4c4ccccc34)O[C@@H]3O[C@@]4(C)CC[C@@H]1[C@]32OO4 (stereo partly drawn) | Rat 6 subclone of the immortalized F2408 embryo cell line (R6) | µM | 0.26 |
| CC1CCC2[C@@H](C)C(=O)OC3O[C@]4(C)CCC1C32OO4 (stereo partly drawn) [Artemisinin, artemisinin, reference compound] | Rat 6 subclone of the immortalized F2408 embryo cell line (R6) | µM | 4.08 |
| C[C@@H]1CC[C@H]2[C@@H](C)C(=O)N(Cc3ccccc3)[C@@H]3O[C@@]4(C)CC[C@@H]1[C@@]23OO4 | Rat 6 subclone of the immortalized F2408 embryo cell line (R6) | µM | 18.49 |

Provide the documented LD50 (Day 6) R6 with Rat 6 subclone of the immortalized F2408 embryo cell line (R6) as the system for CC1CCC2C(C)C(c3ccccc3)OC3OC4(C)CCC1C32OO4 (stereo not drawn) [Example 2, 10β-(phenyl)dihydroartemisinin]
0.475

###

System: Rat 6 (R6T24) cells transfected and transformed by a c-H-ras oncogene
Experiment: Screening for cytotoxicity, cell count by Coulter Counter, R6T24 cells
Assay type: cell-based
Conditions: Table V; R6T24 cell line; day 6 after addition
Listing of recorded LD50 (Day 6) R6T24 by entry.
I only need the number, in µM, no unit after it.

Below are worked cases with known answers.
| compound | LD50 (Day 6) R6T24, µM |
| --- | --- |
| CCOC(=O)CCC1C(=O)OC2OC3(C)CCC4C(C)CCC1C24OO3 (centres unmarked) [Example 19, 9-[2-(ethoxycarbonyl)ethyl]artemisinin] | 24.95 |
| CC1CCC2C(CN(Cc3ccccc3)Cc3ccccc3)C(=O)OC3OC4(C)CCC1C32OO4 (centres unmarked) [Example 17, 9-(N,N-dibenzylaminomethyl)artemisinin] | 0.54 |

Quick check: LD50 (Day 6) R6T24 of COc1cc(OC)c(C2OC3OC4(C)CCC5C(C)CCC(C2C)C35OO4)c(OC)c1 (mixture of isomers) [Example 27] ?
0.26

Quick check: LD50 (Day 6) R6T24 of CC1CCC2C(C)C(OC(=O)c3ccc4c(c3)C(=O)c3ccccc3C4=O)OC3OC4(C)CCC1C32OO4 (centres unmarked) [Example 66] ?
0.32

Quick check: LD50 (Day 6) R6T24 of CC1CCC2C(C)C(c3ccccc3)OC3OC4(C)CCC1C32OO4 (stereo not drawn) [Example 2, 10β-(phenyl)dihydroartemisinin] ?
0.54

Quick check: LD50 (Day 6) R6T24 of COc1ccc(C2OC3OC4(C)CCC5C(C)CCC(C2C)C35OO4)c(OC)c1 (centres unmarked) [Example 4] ?
0.13

Quick check: LD50 (Day 6) R6T24 of CC1CCC2C(CN3CCc4ccccc43)C(=O)OC3OC4(C)CCC1C32OO4 (centres unmarked) [Example 22, 16-(N-1′-indolinyl)artemisinin] ?
7.45

Quick check: LD50 (Day 6) R6T24 of CC1CC[C@H]2[C@@H](C)C(=O)NC3O[C@]4(C)CCC1C32OO4 (some centres unmarked) [Example 14, 11-azaartemisinin] ?
0.09

###

Tested on: Rat 6 (R6T24) cells transfected and transformed by a c-H-ras oncogene
Test: Screening for cytotoxicity, cell count by Coulter Counter, R6T24 cells
Assay type: cell-based
Conditions: Table V; R6T24 cell line; day 6 after addition
metric: LD50 (Day 6) R6T24 (µM)
I only need the number, in µM, no unit after it.

| compound | LD50 (Day 6) R6T24 (µM) |
| --- | --- |
| CO[C@H]1O[C@@H]2O[C@@]3(C)CC[C@H]4[C@H](C)CC[C@@H]([C@H]1C)[C@@]24OO3 [Artemether, artemether, reference compound] | 1.8 |

Here's the next entry for you.
Quick check: LD50 (Day 6) R6T24 of CC1CCC2[C@@H](C)C(=O)OC3O[C@]4(C)CCC1C32OO4 (stereo partly drawn) [Artemisinin, artemisinin, reference compound] ?
1.75

###

Tested on: Rat 6 subclone of the immortalized F2408 embryo cell line (R6)
Test: Screening for cytotoxicity, cell count by Coulter Counter, R6 cells
Format: cell-based
Details: Table VA, day 3 after addition
Listing of recorded LD50 (Day 3) R6 by entry.
I only need the number, in µM, no unit after it.

| compound | LD50 (Day 3) R6 (µM) |
| --- | --- |
| CC1CCC2C(C)C(OC(=O)c3ccc4c(c3)C(=O)c3ccccc3C4=O)OC3OC4(C)CCC1C32OO4 (centres unmarked) | 0.34 |
| COc1ccc(C2OC3OC4(C)CCC5C(C)CCC(C2C)C35OO4)c(OC)c1 (centres unmarked) | 1.37 |
| CC1CCC2[C@@H](C)C(O)OC3O[C@]4(C)CCC1C32OO4 (some centres unmarked) [Dihydroartemisinin, dihydroartemisinin, reference compound] | 1.64 |
| CC1CCC2C(CN3CCc4ccccc43)C(=O)OC3OC4(C)CCC1C32OO4 (centres unmarked) | 25 |
| C[C@@H]1CC[C@H]2[C@@H](C)C(Nc3ccccc3)O[C@@H]3O[C@@]4(C)CC[C@@H]1[C@]32OO4 (some centres unmarked) | 0.31 |
| CC1CCC2C(C)C(OCC(F)(F)F)OC3OC4(C)CCC1C32OO4 (centres unmarked) | 1.56 |
| CC1CCC2C(C)C(OCc3cccc4c3ccc3ccccc34)OC3OC4(C)CCC1C32OO4 (centres unmarked) | 0.12 |
| CC1CCC2C(C)C(c3ccccc3)OC3OC4(C)CCC1C32OO4 (stereo not drawn) [Example 2, 10β-(phenyl)dihydroartemisinin] | 0.61 |
| C[C@@H]1CC[C@H]2[C@@H](C)C(N3CCN(C)CC3)O[C@@H]3O[C@@]4(C)CC[C@@H]1[C@]32OO4 (some centres unmarked) | 0.33 |
| COc1cc(OC)c(C2OC3OC4(C)CCC5C(C)CCC(C2C)C35OO4)c(OC)c1 (mixture of isomers) | 0.57 |

Quick check: LD50 (Day 3) R6 of C[C@@H]1CC[C@H]2[C@@H](C)C(Nc3ccc(F)cc3)O[C@@H]3O[C@@]4(C)CC[C@@H]1[C@]32OO4 (some centres unmarked) ?
0.34

###

Listing of recorded LD50 (Day 3) R6 by entry.
System: Rat 6 subclone of the immortalized F2408 embryo cell line (R6)
Assay: Screening for cytotoxicity, cell count by Coulter Counter, R6 cells
Format: cell-based
Settings: Table V, day 3 after addition
I only need the number, in µM, no unit after it.

Below are worked cases with known answers.
| compound | measurement.target | value |
| --- | --- | --- |
| C[C@@H]1CC[C@H]2[C@@H](C)C(Nc3ccc(F)cc3)O[C@@H]3O[C@@]4(C)CC[C@@H]1[C@]32OO4 (some centres unmarked) | Rat 6 subclone of the immortalized F2408 embryo cell line (R6) | 0.34 |
| CC1CCC2C(CN3CCc4ccccc43)C(=O)OC3OC4(C)CCC1C32OO4 (centres unmarked) | Rat 6 subclone of the immortalized F2408 embryo cell line (R6) | 24.77 |

Here's the next entry for you.
Provide the documented LD50 (Day 3) R6 with Rat 6 subclone of the immortalized F2408 embryo cell line (R6) as the system for CC1CCC2C(C)C(c3ccccc3)OC3OC4(C)CCC1C32OO4 (stereo not drawn) [Example 2, 10β-(phenyl)dihydroartemisinin]
0.61
